target: Amine oxidase [flavin-containing] A (Homo sapiens, UniProt P21397); test: Inhibition of MAO-A (unknown origin) at 1 mM relative to control
Sequence (P21397 whole entry): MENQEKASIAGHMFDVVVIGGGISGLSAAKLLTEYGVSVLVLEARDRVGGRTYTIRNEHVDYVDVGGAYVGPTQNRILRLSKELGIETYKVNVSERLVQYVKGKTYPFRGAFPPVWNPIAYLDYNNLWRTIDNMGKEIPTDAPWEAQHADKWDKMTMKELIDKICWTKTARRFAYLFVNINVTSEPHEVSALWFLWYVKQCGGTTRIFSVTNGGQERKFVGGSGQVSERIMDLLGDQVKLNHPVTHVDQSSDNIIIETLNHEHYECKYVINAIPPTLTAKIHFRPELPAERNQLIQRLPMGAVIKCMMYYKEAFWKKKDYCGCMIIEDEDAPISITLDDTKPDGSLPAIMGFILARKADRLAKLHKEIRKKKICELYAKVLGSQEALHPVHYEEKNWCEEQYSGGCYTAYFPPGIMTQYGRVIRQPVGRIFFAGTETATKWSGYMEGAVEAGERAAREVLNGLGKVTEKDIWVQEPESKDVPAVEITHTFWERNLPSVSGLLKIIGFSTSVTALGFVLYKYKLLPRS
Reported inhibition at 1000 µM is given for each of the following molecules.
Answer with a number only, understood to be in %.

COc1ccc2cc(/C=N/Nc3nc(-c4cccc(F)c4)cs3)ccc2c1: 59.4

Any idea what its inhibition at 1000 µM is? The molecule is "COc1ccc2cc(/C=N/Nc3nc(-c4cc5ccccc5o4)cs3)ccc2c1"
58.4

Any idea what its inhibition at 1000 µM is? The molecule is "COc1ccc(-c2csc(N/N=C/c3ccc4cc(OC)ccc4c3)n2)cc1"
50

Any idea what its inhibition at 1000 µM is? The molecule is "COc1ccc2cc(/C=N/Nc3nc(-c4ccc(-c5ccccc5)cc4)cs3)ccc2c1"
59.2

----------
molecular target: Amine oxidase [flavin-containing] A (Homo sapiens, UniProt P21397); assay: Inhibition of MAO-A (unknown origin) at 1 mM relative to control
quantity measured: inhibition at 1000 µM (%)
Answer with a number only, understood to be in %.

Sample records with inhibition at 1000 µM:
COc1ccc2cc(/C=N/NC3=NC(=O)CS3)ccc2c1: 55.8
COc1ccc2cc(/C=N/Nc3nc(C)c(C)s3)ccc2c1: 54.4

Kindly review the next compound as well.
Tell me reported inhibition at 1000 µM for "COc1ccc2cc(/C=N/Nc3nc(-c4ccc(C)cc4)cs3)ccc2c1" , tested with Amine oxidase [flavin-containing] A (Homo sapiens, UniProt P21397).
49.8
